# Assayed System: Genome polyprotein (Hepatitis C virus genotype 1a (isolate H77), UniProt P27958)
# Sequence (P27958 1027-1657 limits assumed): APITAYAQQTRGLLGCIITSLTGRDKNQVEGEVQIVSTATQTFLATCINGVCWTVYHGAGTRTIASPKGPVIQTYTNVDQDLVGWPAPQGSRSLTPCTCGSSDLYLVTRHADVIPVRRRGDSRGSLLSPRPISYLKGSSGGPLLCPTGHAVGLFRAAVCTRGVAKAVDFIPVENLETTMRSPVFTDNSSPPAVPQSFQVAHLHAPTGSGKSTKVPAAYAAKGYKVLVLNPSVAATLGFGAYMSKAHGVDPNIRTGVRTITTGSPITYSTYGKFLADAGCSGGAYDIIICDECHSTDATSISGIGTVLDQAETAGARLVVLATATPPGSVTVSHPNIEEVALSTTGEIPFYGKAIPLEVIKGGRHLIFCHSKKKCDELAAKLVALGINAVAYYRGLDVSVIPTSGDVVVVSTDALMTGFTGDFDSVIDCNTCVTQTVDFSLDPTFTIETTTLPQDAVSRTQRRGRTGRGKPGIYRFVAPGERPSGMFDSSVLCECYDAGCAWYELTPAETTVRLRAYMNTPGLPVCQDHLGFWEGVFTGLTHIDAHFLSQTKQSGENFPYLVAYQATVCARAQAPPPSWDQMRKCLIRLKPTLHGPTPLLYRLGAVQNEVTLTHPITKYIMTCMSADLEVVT
# Method Description: Continuous Spectrophotometric Assay
# Run Parameters: pH 6.5; 30 °C
# Description: Proteolytic cleavage of the ester linkage between the Nva (L-norvaline) and the chromophore (PAP) was monitored for change in absorbance at 370 nm. Initial velocities were determined using linear regression and kinetic constants were obtained by fitting the data to the Michaelis-Menten equation.
Kindly supply the reported pKi values for the records listed here.
Please keep in mind that pKi is minus log10 of the molar concentration; only the number is needed.

Hey, Genome polyprotein (Hepatitis C virus genotype 1a (isolate H77), UniProt P27958) data for CC[C@H](NC(=O)C1[C@@H]2[C@H](CN1C(=O)[C@@H](NC(=O)NC(C)(C)C)C(C)(C)C)C2(C)C)B1O[C@@H]2CC3CC(C3(C)C)[C@]2(C)O1 (stereo partly drawn) : pKi came out at 6.42

Hey, Genome polyprotein (Hepatitis C virus genotype 1a (isolate H77), UniProt P27958) data for CN(C[C@@H](NC(=O)N[C@H](C(=O)N1C[C@H]2[C@@H]([C@H]1C(=O)N[C@@H](CC1CCC1)B1O[C@@H]3CC4CC(C4(C)C)[C@]3(C)O1)C2(C)C)C(C)(C)C)C(C)(C)C)S(C)(=O)=O (stereo partly drawn) : pKi came out at 9.30

Hey, Genome polyprotein (Hepatitis C virus genotype 1a (isolate H77), UniProt P27958) data for CC[C@H](NC(=O)[C@@H]1[C@@H]2[C@H](CN1C(=O)[C@@H](NC(=O)NC(C)(C)C)C(C)(C)C)C2(C)C)B1O[C@@H]2CC3CC(C3(C)C)[C@]2(C)O1 (stereo partly drawn) : pKi came out at 6.30
